FYI, the data here is from patent US20210395392A1.

Biological target: T1, Human MerTK on hMerTK-expressing cells (human, UniProt Q12866 21-999)
T1 sequence: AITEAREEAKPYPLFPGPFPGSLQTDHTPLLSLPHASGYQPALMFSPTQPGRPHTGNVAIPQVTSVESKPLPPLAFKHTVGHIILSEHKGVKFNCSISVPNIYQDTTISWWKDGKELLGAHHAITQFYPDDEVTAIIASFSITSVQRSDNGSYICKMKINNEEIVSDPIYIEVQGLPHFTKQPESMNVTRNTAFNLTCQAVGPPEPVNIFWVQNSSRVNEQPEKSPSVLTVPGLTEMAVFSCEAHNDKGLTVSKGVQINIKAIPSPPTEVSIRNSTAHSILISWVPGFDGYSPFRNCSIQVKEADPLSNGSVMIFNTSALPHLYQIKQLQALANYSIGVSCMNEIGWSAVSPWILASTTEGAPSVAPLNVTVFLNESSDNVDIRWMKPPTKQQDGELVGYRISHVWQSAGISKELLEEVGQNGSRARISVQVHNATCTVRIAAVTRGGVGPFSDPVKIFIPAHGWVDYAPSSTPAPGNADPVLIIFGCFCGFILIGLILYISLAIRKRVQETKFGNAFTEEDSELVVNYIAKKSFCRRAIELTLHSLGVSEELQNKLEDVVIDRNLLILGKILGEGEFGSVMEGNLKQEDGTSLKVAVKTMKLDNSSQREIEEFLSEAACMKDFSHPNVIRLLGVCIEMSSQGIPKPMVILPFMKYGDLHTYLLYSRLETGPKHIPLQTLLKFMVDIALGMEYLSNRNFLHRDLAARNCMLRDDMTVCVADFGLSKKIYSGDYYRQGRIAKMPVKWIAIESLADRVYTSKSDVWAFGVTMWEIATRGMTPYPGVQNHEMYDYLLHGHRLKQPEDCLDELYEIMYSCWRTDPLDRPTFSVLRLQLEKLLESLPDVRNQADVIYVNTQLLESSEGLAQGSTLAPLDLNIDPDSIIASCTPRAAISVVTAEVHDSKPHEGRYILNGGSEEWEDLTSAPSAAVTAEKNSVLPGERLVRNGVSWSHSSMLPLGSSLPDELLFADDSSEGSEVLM
Assay: cell-based or functional assay
MEASUREMENT TYPE: Inhibition of Efferocytosis IC50 (nM)
Numeric only. Scale: nM

Here are 3 binders together with their reported answers.
>  <BINDER>
MoMAb 2D9 (antibody, V domains shown, Mouse mAb; Bin 2) VH: QVQLKESGPGLVAPSQSLSITCTVSGISLSSFAISWVRQPPGKGLEWLGVIWTGGGTDYNSALKSRLTISKDTSKNQVFLKMNSLQTDDTARYYCASHWYLDVWGTGTTVTVSS VL: QAVVTQESALTTSPGETVTLTCRSSTGAVSTSNYANWVQEKPDHLFTGLIGGANSRAPGIPARFSGSLIGDKAALTITGAQTEDEAIYFCALWFSNHWVFGGGTKLTVL

>  <Inhibition of Efferocytosis IC50 / nM>
0.528

$$$$
>  <BINDER>
HuMAb 8N42 (antibody, V domains shown, Human anti-hMerTK mAb, Bin 1) VH: QVQLQQWGAGLLKPSETLSLTCAVYGGSFSIYYWSWIRQPPGKGLELIGEINDEGNTNYNPSLKSRVTISVDTSKNQFSLKLSSVTAADTAVYYCARGGTGDIHAFDIWGQGTMVTVSS VL: DIQMTQSPSSLSASVGDRVTITCRASQGISKWLAWYQQKPEKAPKSLIYAASSLQSGVPSRFSGSGSGTDFTLTISSLQPEDFATYYCQQYNSYPWTFGQGTKVEIKR

>  <Inhibition of Efferocytosis IC50 / nM>
0.047

$$$$
>  <BINDER>
HuMAb 22I16 (antibody, human IgG1, kappa, V domains shown, Human anti-hMerTK mAb, Bin 1; also called 22116) VH: EVQLVESGGGLVQPGGSLRLSCAASGFTFSSYSMNWVRQAPGKGLEWVSYIISGSDTIFYADSVKGRFTISRDNAKNSLYLQMNSLRDEDTAVYYCARDETVVRGVINYFDYWGQGTLVTVSS VL: AIQLTQSPSSLSASVGDRVTITCRSSQGISSALAWYQQKPGKAPKLLIYDASSLESGVPSRFSGSGSGTDFTLTISSLQPEDFATYYCQQFISYPTFGQGTRLEIKR

>  <Inhibition of Efferocytosis IC50 / nM>
0.352

$$$$

Incoming: I have this binder here, HuMAb 10K11 (antibody, human IgG1, kappa, V domains shown, Human anti-hMerTK mAb, Bin 1) VH: QLQLQESGPGLVKPSETLSLTCAVSGYSISSDYSWGWIRQPPGKGLEWIGSIYHSGNTYFNPSLKSRVTISVDTSKNQFSLKLSSVTAADTAVYYCARDKSYYFGPGSMDVWGQGTTVTVSS VL: AIQLTQSPSSLSASVGDRVTITCRASQGISSALAWYQQKPGKAPKLLIYDASSLESGVPSRFSGSGSGTDFTLTISSLQPEDFATYYCQQFKSYLTFGQGTRLEIKR , and I need its recorded Inhibition of Efferocytosis IC50.
Outgoing: 0.169
